Each item that follows carries a reported yeast fitness.
B1: tRNA (parent)
chain: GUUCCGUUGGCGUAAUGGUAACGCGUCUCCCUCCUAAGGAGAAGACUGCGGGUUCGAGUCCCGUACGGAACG

Variants of: B1
Experiment: yeast fitness relative to wild type (ratio to wild type); higher = fitter; tRNA-Arg(CCU), competitive growth, 37 C, YPD
Variants at the floor of the assay were thinned out.
observable: yeast fitness

INSERT INTO measurements (ordered_residues, observed_result) VALUES
  ('GUUCUGUUGGCGUAAUGGUAACGCGUCUCCCUCCUAAGGAGAAGGCUGCGGGUUCGAGUCCCGUACGGGACG [C5U A45G A69G]', 0.909),
  ('GUUCCGUUCGCGUAAUGGUAACGCGUCUCCCUCCUAAGGAGAACACUGCGGGUUCGAGUCUCGUACGGAACG [G9C G44C C61U]', 0.584),
  ('GUUCCGUUGGCGUAAUGGUAAUGCGUCUCCCUCCUAAGGAGAAGACUGCGGGUCCGAGUCCCGUAGGGAACG [C22U U54C C66G]', '≤ 0.5'),
  ('GUUCCGUUGGUGUAAUGGUAACGCGUCUCCCUCUUAAGGAGAAGACUACGGGUUCGAGUCCCGUACGGAACG [C11U C34U G48A]', '≤ 0.5'),
  ('GUUCCGUUGGCGUAAUAGUAAUGCGUAUCGCUCCUAAGGAGAAGACUGAGGGUUCGAGUCCCGUACGGAACG [G17A C22U C27A C30G C49A]', '≤ 0.5'),
  ('GCUCCGUUGGCGUAAUGGUAACGAGUCUCCCUACUAAGGAGAAGAUUGCGGGUUCGAGUCCCGUACGGAACG [U2C C24A C33A C46U]', '≤ 0.5'),
  ('GUCCCGUUGGCGUAAUGGUAACGCGUCUGCCUACUAAGGAGAAGACUGCGGGUUCGAGUCCCGUACGGAACG [U3C C29G C33A]', '≤ 0.5'),
  ('GUUCCGUAGGUGUAAUGGUAACGCGUCUCCCUCCUAAGGAGAAGACUGCGGGUUCGAGUCUUGUAAGGAACG [U8A C11U C61U C62U C66A]', '≤ 0.5'),
  ('GUUCCGUUGGCGUAAUGGCAUCGCGUCUCCCUCCUAAGGUGAAGACUGCGGGUUCGAGUCCCGUACGGAACG [U19C A21U A40U]', 0.641),
  ('GGUCCGUUGGCGUAAUGGUGACGCGUCUCCCUUCUAAGAAGAAGACUGCGGGUUCGAGUCCCGUGCGGAACG [U2G A20G C33U G39A A65G]', '≤ 0.5');
